Source listed as ChEMBL document CHEMBL3885881.

Organism: Rattus norvegicus
Experiment: DrugMatrix - Regimen: Daily Repeat
Format: toxicity, organism-based, Sprague-Dawley
Design: regimen Daily Repeat, gender Male, age 6-8 weeks
Conditions: in vivo, po, 0 mg/kg, 72 h, tissue Blood, route oral GAVAGE, dose level Control, time 3 day, vehicle .5 % CMC
# NEUTROPHIL listing for each entry below
Please state the figure in %; there is no need to write the unit.

Some entries whose results are on file:
CN1C(=O)CN=C(c2ccccc2)c2cc([N+](=O)[O-])ccc21    18.6
C[C@@](Cc1ccc(O)c(O)c1)(NN)C(=O)O.O    9.33
CN(C)C(=O)C(CCN1CCC(O)(c2ccc(Cl)cc2)CC1)(c1ccccc1)c1ccccc1 [LOPERAMIDE]    8.83
C[C@@H]1O[C@@H](O[C@H]2C[C@@H](O)[C@]3(CO)[C@H]4[C@H](O)C[C@]5(C)[C@@H](C6=CC(=O)OC6)CC[C@]5(O)[C@@H]4CC[C@]3(O)C2)[C@H](O)[C@H](O)[C@H]1O    11
COc1cc(OC)c(C(=O)CCCN2CCCC2)c(OC)c1    11.33
COc1ccccc1[N+](=O)[O-]    14.5

q: Please report the recorded NEUTROPHIL for CCOc1nc2cccc(C(=O)O)c2n1Cc1ccc(-c2ccccc2-c2nnn[nH]2)cc1 .
a: 7.33

q: Please report the recorded NEUTROPHIL for NC(=O)N1c2ccccc2CC(=O)c2ccccc21 [OXCARBAZEPINE] .
a: 7.17

q: Please report the recorded NEUTROPHIL for CCn1cc(C(=O)O)c(=O)c2cc(F)c(N3CCNC(C)C3)c(F)c21 (configuration not stated) .
a: 18

q: Please report the recorded NEUTROPHIL for C[C@]12CC[C@@H]3c4ccc(O)cc4CC[C@H]3[C@@H]1C[C@@H](O)[C@@H]2O .
a: 7.67

q: Please report the recorded NEUTROPHIL for C#C[C@]1(O)CC[C@H]2[C@@H]3CCC4=CC(=O)CC[C@]4(C)[C@H]3CC[C@@]21C .
a: 11.16

q: Please report the recorded NEUTROPHIL for CN1CCN(C2=Nc3cc(Cl)ccc3Nc3ccccc32)CC1 .
a: 19.83

q: Please report the recorded NEUTROPHIL for CCC1=C(C)CN(C(=O)NCCc2ccc(S(=O)(=O)NC(=O)N[C@H]3CC[C@H](C)CC3)cc2)C1=O [GLIMEPIRIDE] .
a: 8.83

q: Please report the recorded NEUTROPHIL for C[C@H]1[C@H](NC(=O)/C(=N\OC(C)(C)C(=O)O)c2csc(N)n2)C(=O)N1S(=O)(=O)O .
a: 9.33

q: Please report the recorded NEUTROPHIL for CCCNC(=O)NS(=O)(=O)c1ccc(Cl)cc1 [CHLORPROPAMIDE] .
a: 19.83

q: Please report the recorded NEUTROPHIL for CCCCC1=NC2(CCCC2)C(=O)N1Cc1ccc(-c2ccccc2-c2nnn[nH]2)cc1 .
a: 21.17

q: Please report the recorded NEUTROPHIL for COc1ccc2c(c1OC)C(=O)O[C@@H]2[C@H]1c2c(cc3c(c2OC)OCO3)CCN1C .
a: 11.16

* * *

Organism: Rattus norvegicus
Assay: DrugMatrix - Regimen: Daily Repeat
Format: toxicity, organism-based, Sprague-Dawley
Set-up: regimen Daily Repeat, gender Male, age 6-8 weeks
Details: in vivo, po, 0 mg/kg, 72 h, tissue Blood, route oral GAVAGE, dose level Control, time 3 day, […]
reported metric: PLATELET COUNT (x10E3/uL)
Please state the figure in x10E3/uL; there is no need to write the unit.

Some entries whose results are on file:
c1ccoc1    1122
O=c1c(-c2ccc(O)cc2)coc2cc(O)cc(O)c12    1084
Cc1ccc(C)c(OCCCC(C)(C)C(=O)O)c1    1029
ClC(Cl)(Cl)Cl [CARBON TETRACHLORIDE]    1038.67
CCCCC(=O)N(Cc1ccc(-c2ccccc2-c2nnn[nH]2)cc1)[C@H](C(=O)O)C(C)C    414.5

q: Please report the recorded PLATELET COUNT for CC(C)c1c(C(=O)Nc2ccccc2)c(-c2ccccc2)c(-c2ccc(F)cc2)n1CC[C@@H](O)C[C@@H](O)CC(=O)O .
a: 1084

q: Please report the recorded PLATELET COUNT for CC(=O)Oc1ccccc1C(=O)O .
a: 1082.83

q: Please report the recorded PLATELET COUNT for CS(=O)(=O)Nc1ccc([N+](=O)[O-])cc1Oc1ccccc1 [NIMESULIDE] .
a: 1151

* * *

# HEMOGLOBIN listing for each entry below
Organism: Rattus norvegicus
Experiment: DrugMatrix - Regimen: Daily Repeat
Type: toxicity, organism-based, Sprague-Dawley
Design: regimen Daily Repeat, gender Male, age 6-8 weeks
Conditions: in vivo, po, 0 mg/kg, 72 h, tissue Blood, route oral GAVAGE, dose level Control, time 3 day, vehicle .5 % CMC
Please state the figure in G/DL; there is no need to write the unit.

CCn1cc(C(=O)O)c(=O)c2cc(F)c(N3CCNC(C)C3)c(F)c21 (configuration not stated)    13.98
C[C@@H]1O[C@@H](O[C@H]2C[C@@H](O)[C@]3(CO)[C@H]4[C@H](O)C[C@]5(C)[C@@H](C6=CC(=O)OC6)CC[C@]5(O)[C@@H]4CC[C@]3(O)C2)[C@H](O)[C@H](O)[C@H]1O    12.73
CCCCC1=NC2(CCCC2)C(=O)N1Cc1ccc(-c2ccccc2-c2nnn[nH]2)cc1    14.63
COc1cc(OC)c(C(=O)CCCN2CCCC2)c(OC)c1    13.8

Now look at this one.
q: Please report the recorded HEMOGLOBIN for CN1C(=O)CN=C(c2ccccc2)c2cc([N+](=O)[O-])ccc21 .
a: 13.62

* * *

Organism: Rattus norvegicus
Test: DrugMatrix - Regimen: Daily Repeat
Assay type: toxicity, organism-based, Sprague-Dawley
Parameters: regimen Daily Repeat, gender Male, age 6-8 weeks
Details: in vivo, po, 0 mg/kg, 120 h, tissue Plasma, route oral GAVAGE, dose level Control, time 5 day, vehicle .5 % CMC
# URIC ACID listing for each entry below
Please state the figure in mg/dL; there is no need to write the unit.

Some entries whose results are on file:
C[C@]12CC[C@@H]3c4ccc(O)cc4CC[C@H]3[C@@H]1C[C@@H](O)[C@@H]2O    1.45
CCC1=C(C)CN(C(=O)NCCc2ccc(S(=O)(=O)NC(=O)N[C@H]3CC[C@H](C)CC3)cc2)C1=O [GLIMEPIRIDE]    1.5

q: Please report the recorded URIC ACID for CN(C)CCN(Cc1cccs1)c1ccccn1 .
a: 1.35

q: Please report the recorded URIC ACID for CCOc1nc2cccc(C(=O)O)c2n1Cc1ccc(-c2ccccc2-c2nnn[nH]2)cc1 .
a: 1.48

* * *

Species on record: Rattus norvegicus
Assay: DrugMatrix - Regimen: Daily Repeat
Assay type: toxicity, organism-based, Sprague-Dawley
Set-up: regimen Daily Repeat, gender Male, age 6-8 weeks
Settings: in vivo, po, 0 mg/kg, 72 h, tissue Plasma, route oral GAVAGE, dose level Control, time 3 day, vehicle 100 % WATER
# LIPASE listing for each entry below
Please state the figure in u/L; there is no need to write the unit.

Some entries whose results are on file:
CCCC(C)C1(CC)C(=O)NC(=O)NC1=O (centres undefined) [PENTOBARBITAL]    9.5
CNC1=Nc2ccc(Cl)cc2C(c2ccccc2)=[N+]([O-])C1 [CHLORDIAZEPOXIDE]    9.83
C#Cc1cccc(Nc2ncnc3cc(OCCOC)c(OCCOC)cc23)c1 [ERLOTINIB]    11.67
CN(C)C(=O)Oc1cccc([N+](C)(C)C)c1.[Br-] [NEOSTIGMINE BROMIDE]    9.5
NC12CC3CC(CC(C3)C1)C2 [AMANTADINE]    11.17

q: Please report the recorded LIPASE for O=c1[nH]c(=O)n(C2CCCO2)cc1F (centres undefined) [TEGAFUR] .
a: 9.33

q: Please report the recorded LIPASE for CCN(C(C)=O)c1cccc(-c2ccnc3c(C#N)cnn23)c1 [ZALEPLON] .
a: 11.17

q: Please report the recorded LIPASE for CN(C)CCC=C1c2ccccc2CCc2ccccc21 [AMITRIPTYLINE] .
a: 11.17

q: Please report the recorded LIPASE for NC(=O)c1cccnc1 [NIACINAMIDE] .
a: 10.67

* * *

# ABSOLUTE LYMPHOCYTE listing for each entry below
Species: Rattus norvegicus
Test: DrugMatrix - Regimen: Daily Repeat
Assay type: toxicity, organism-based, Sprague-Dawley
Set-up: regimen Daily Repeat, gender Male, age 6-8 weeks
Conditions: in vivo, ip, 0 mg/kg, 120 h, tissue Blood, route intraperitoneal, dose level Control, time 5 day, vehicle 100 % SALINE
Please state the figure in cells/µL; there is no need to write the unit.

COBALTOUS CHLORIDE    6630

Now look at this one.
q: Please report the recorded ABSOLUTE LYMPHOCYTE for TRANSPLATIN .
a: 6630
